System: CAKI-1 renal
ASSAY: NCI tumour cell line growth inhibition, 48 h
Listed compounds paired with reported TGI
QUANTITY NAME: TGI

{"COMPOUND": "c1ccc(-c2nc([P+](c3ccccc3)(c3ccccc3)c3ccccc3)c(N3CCOCC3)o2)cc1", "QUANTITY NAME": "TGI", "MEASUREMENT": "6.47 µM"}
{"COMPOUND": "CCC1(CN(C)C)CC/C(=C\\c2ccc(OC)cc2)C1=O (stereo unspecified)", "QUANTITY NAME": "TGI", "MEASUREMENT": "> 100 µM"}
{"COMPOUND": "Cc1nc2c(nc1C)C(=O)C1=C(C2=O)C2C=CC1CC2", "QUANTITY NAME": "TGI", "MEASUREMENT": "37.6 µM"}
{"COMPOUND": "CC1CN=C(c2cccc(-c3ccc(-c4ccccc4)o3)c2)N1 (stereo unspecified)", "QUANTITY NAME": "TGI", "MEASUREMENT": "9.19 µM"}
{"COMPOUND": "Cc1ccc(-c2cc(=S)n(-c3ccccc3)c3nc(=S)n(-c4ccccc4)c(N)c23)cc1", "QUANTITY NAME": "TGI", "MEASUREMENT": "> 100 µM"}
{"COMPOUND": "CN1C(=O)C23CC4(C56CC78SSC(CO)(C(=O)N7C5Nc5ccccc56)N(C)C8=O)c5ccccc5NC4N2C(=O)C1(CO)SS3 (stereo unspecified)", "QUANTITY NAME": "TGI", "MEASUREMENT": "0.29 µM"}
{"COMPOUND": "CCCC12Cc3c(OC)ccc(OC)c3CC(Cc3c(OC)ccc(OC)c31)C2=O (stereo unspecified)", "QUANTITY NAME": "TGI", "MEASUREMENT": "> 100 µM"}
{"COMPOUND": "CC(=O)c1cccc(NC(=O)C(=O)C(C(=O)NN)c2ccccc2)c1 (stereo unspecified)", "QUANTITY NAME": "TGI", "MEASUREMENT": "> 100 µM"}
{"COMPOUND": "Cc1cc(NS(=O)(=O)c2ccc(NC(=O)c3ccc(Cl)c4c(Nc5ccc(S(N)(=O)=O)cc5)c5ccccc5nc34)cc2)no1", "QUANTITY NAME": "TGI", "MEASUREMENT": "40.5 µM"}
{"COMPOUND": "COc1cccc(C=O)c1[O-].COc1cccc(C=O)c1[O-].[Cu+2]", "QUANTITY NAME": "TGI", "MEASUREMENT": "10.3 µM"}
{"COMPOUND": "Nc1nc2c(ncn2C2C=CC(COS(N)(=O)=O)C2)c(=O)[nH]1 (stereo unspecified)", "QUANTITY NAME": "TGI", "MEASUREMENT": "> 100 µM"}
{"COMPOUND": "COc1nc2ncc([C@@H](O)[C@H](O)CO)nc2c(=O)n1C", "QUANTITY NAME": "TGI", "MEASUREMENT": "> 100 µM"}
{"COMPOUND": "COC(=O)[C@]1(C)CCC[C@]2(C)[C@H]3CC[C@]4(C(C)C)OO[C@@H](O4)[C@]34O[C@@H]4C[C@H]21", "QUANTITY NAME": "TGI", "MEASUREMENT": "0.927 µM"}
{"COMPOUND": "Nc1ncnc2c1ncn2C1OC(CO)C2OC21 (stereo unspecified)", "QUANTITY NAME": "TGI", "MEASUREMENT": "> 100 µM"}
{"COMPOUND": "C/C(=N\\NC(=O)c1ccccc1N)c1ccccc1O", "QUANTITY NAME": "TGI", "MEASUREMENT": "> 100 µM"}
{"COMPOUND": "COc1cccc(-n2ncc3c(N/N=C/c4cccc(F)c4)ncnc32)c1", "QUANTITY NAME": "TGI", "MEASUREMENT": "24.6 µM"}
{"COMPOUND": "COc1c(O)ccc(C2=Cc3ccc(O)cc3OC2)c1OC", "QUANTITY NAME": "TGI", "MEASUREMENT": "50 µM"}
{"COMPOUND": "CN(C)C(=S)/N=c1\\ss/c(=N\\C(=S)N(C)C)n1C1CCCCC1", "QUANTITY NAME": "TGI", "MEASUREMENT": "> 100 µM"}
{"COMPOUND": "Cc1oc2nc[nH]c(=O)c2c1C(=O)/C=C/c1ccc(Br)cc1", "QUANTITY NAME": "TGI", "MEASUREMENT": "11.5 µM"}
{"COMPOUND": "CC(CO)(CO)N1C(=O)C2C3c4ccccc4C(c4ccccc43)C2C1=O (stereo unspecified)", "QUANTITY NAME": "TGI", "MEASUREMENT": "> 100 µM"}
{"COMPOUND": "Cc1ccc(/C(=C/C=C(/C#N)C(N)=O)Sc2ncnn2C)cc1", "QUANTITY NAME": "TGI", "MEASUREMENT": "19.6 µM"}

Ref: PubChem BioAssay (NCI)
